Hello, the source for this data is ChEMBL document CHEMBL1961873, in case you need it.

molecular target: MAP kinase-interacting serine/threonine-protein kinase 2 (Homo sapiens); details: at 1 µM
Description: GSK_PKIS: MNK2 mean inhibition at 1 uM [Nanosyn]
Categories are defined by ranges of inhibition, namely low band = under 5%, middle band = from 5% up to 9%, high band = 9% and over

Which bin, given its inhibition, does NS(=O)(=O)c1ccc(N/N=C2\C(=O)Nc3ccc(C(=O)NCCc4c[nH]cn4)cc32)cc1 occupy?
low band

Which bin, given its inhibition, does CCn1c(-c2nonc2N)nc2cnc(Oc3cccc(NC(=O)c4ccc(OCCN5CCOCC5)cc4)c3)cc21 occupy?
high band

Which bin, given its inhibition, does CN(C)c1cc2c(Nc3ccc4nc(Cc5ccccc5)[nH]c4c3)ncnc2cn1 occupy?
low band

Which bin, given its inhibition, does COc1ccc(-c2ccncc2)cc1C(N)=O occupy?
middle band

Which bin, given its inhibition, does [O-][S+]1CCN(Cc2ccc(-c3ccc4ncnc(Nc5ccc(OCc6ccccc6)c(F)c5)c4c3)o2)CC1 occupy?
high band

Which bin, given its inhibition, does Nc1nc(-c2ccccn2)c(-c2ccc3ncccc3n2)s1 occupy?
middle band

Which bin, given its inhibition, does NC(=O)c1cccc(Nc2nccc(Nc3cccc4[nH]ncc34)n2)c1 occupy?
high band

Which bin, given its inhibition, does Cc1cccc(-c2n[nH]cc2-c2ccc3ncccc3n2)n1 occupy?
low band

Which bin, given its inhibition, does CCCN1CCC(Oc2cc(Nc3nc(Nc4cccc(F)c4C(N)=O)c4cc[nH]c4n3)c(OC)cc2Cl)CC1 occupy?
low band

Which bin, given its inhibition, does CCn1c(-c2nonc2N)nc2cncc(C(=O)N3CC[C@H](N)C3)c21 occupy?
high band

Which bin, given its inhibition, does Fc1cccc(COc2ccc(Nc3ncnc4cc(-c5ccc[nH]5)sc34)cc2Cl)c1 occupy?
low band

Which bin, given its inhibition, does CS(=O)(=O)Nc1ccc(N/C=C2\C(=O)Nc3ccccc32)cc1 occupy?
middle band

Which bin, given its inhibition, does CS(=O)(=O)CCN(CC#N)Cc1ccc(-c2ccc3ncnc(Nc4ccc(OCc5cccc(F)c5)c(Cl)c4)c3c2)o1 occupy?
high band

###

tested on: Epidermal growth factor receptor (Homo sapiens), P00533 [L861Q]; conditions: at 1 µM
Sequence (P00533 whole entry L861Q): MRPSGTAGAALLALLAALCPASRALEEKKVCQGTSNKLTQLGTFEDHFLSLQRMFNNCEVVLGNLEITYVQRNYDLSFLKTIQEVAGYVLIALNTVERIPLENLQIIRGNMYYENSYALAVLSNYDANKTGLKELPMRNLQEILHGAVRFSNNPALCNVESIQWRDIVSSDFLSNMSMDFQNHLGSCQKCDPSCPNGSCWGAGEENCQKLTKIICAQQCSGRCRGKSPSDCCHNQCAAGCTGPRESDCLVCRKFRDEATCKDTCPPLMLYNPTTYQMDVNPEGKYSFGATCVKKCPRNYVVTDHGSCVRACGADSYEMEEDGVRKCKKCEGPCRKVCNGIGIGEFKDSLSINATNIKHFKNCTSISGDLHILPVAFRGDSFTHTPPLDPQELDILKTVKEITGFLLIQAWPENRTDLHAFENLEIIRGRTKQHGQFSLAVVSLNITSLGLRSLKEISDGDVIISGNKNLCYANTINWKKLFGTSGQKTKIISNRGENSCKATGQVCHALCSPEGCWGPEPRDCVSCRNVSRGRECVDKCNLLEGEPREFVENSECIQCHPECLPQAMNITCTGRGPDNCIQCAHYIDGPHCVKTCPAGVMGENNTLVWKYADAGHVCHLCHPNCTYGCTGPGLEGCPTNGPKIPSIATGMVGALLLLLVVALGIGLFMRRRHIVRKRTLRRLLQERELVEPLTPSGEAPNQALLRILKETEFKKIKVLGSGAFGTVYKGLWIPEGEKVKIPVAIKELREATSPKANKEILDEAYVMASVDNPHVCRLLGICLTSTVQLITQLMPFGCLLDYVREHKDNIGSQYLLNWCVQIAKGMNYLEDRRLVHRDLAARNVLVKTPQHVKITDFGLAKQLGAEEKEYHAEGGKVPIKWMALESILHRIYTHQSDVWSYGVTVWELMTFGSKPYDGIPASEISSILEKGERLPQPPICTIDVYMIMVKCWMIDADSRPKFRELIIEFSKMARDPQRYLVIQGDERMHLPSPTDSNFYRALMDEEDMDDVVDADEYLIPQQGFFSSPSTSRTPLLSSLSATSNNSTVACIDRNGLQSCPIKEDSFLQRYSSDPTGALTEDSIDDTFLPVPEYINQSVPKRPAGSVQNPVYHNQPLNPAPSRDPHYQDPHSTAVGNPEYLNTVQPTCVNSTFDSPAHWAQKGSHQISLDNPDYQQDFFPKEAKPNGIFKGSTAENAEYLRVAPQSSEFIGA
I'd be grateful if you could share measured inhibition for these entries.
Give a bare numeral; the unit % is implied.

Can you share its inhibition? I mean this compound: COc1ccccc1Nc1ncc(-c2ccccc2)o1
1.75

Can you share its inhibition? I mean this compound: COC(=O)Nc1nc2cc(Oc3ccc(NC(=O)Nc4cccc(C(=O)O)c4)cc3)ccc2[nH]1
0.36

Can you share its inhibition? I mean this compound: COc1cc(C)c(NC(=O)CN(C)C)cc1Nc1nc(Nc2cccc(F)c2C(N)=O)c2cc[nH]c2n1
5

Can you share its inhibition? I mean this compound: CNC(=O)c1cncc(/C=C/c2c(Cl)cccc2Cl)c1
4.01

Can you share its inhibition? I mean this compound: CCn1c(-c2nonc2N)nc2cncc(C(=O)N3CC[C@H](N)C3)c21
4.5

Can you share its inhibition? I mean this compound: Nc1nc(-c2ccccn2)c(-c2ccc3ncccc3n2)s1
4.31

Can you share its inhibition? I mean this compound: CS(=O)(=O)Nc1ccc(N/C=C2\C(=O)Nc3ccccc32)cc1
-1.41

Can you share its inhibition? I mean this compound: O=C(Nc1n[nH]c2nc(-c3ccco3)c(Br)cc12)C1CC1
1.89

Can you share its inhibition? I mean this compound: CCn1c(-c2nonc2N)nc2cnc(Oc3cccc(NC(=O)c4ccc(OCCN5CCOCC5)cc4)c3)cc21
2.57

Can you share its inhibition? I mean this compound: COc1cc2ncn(-c3cc(O[C@@H](C)c4ccccc4Cl)c(C(N)=O)s3)c2cc1OC
7.73
